# experimental_details: from Bachrata, M.; Bezakova, Z.; Pesák, M.; Blesova, M. (1983). Study of physicochemical properties of substances with cancerostatic effect. II. Study of lipo-hydrophilic parameters. Acta Fac. Pharm. …
# assay_setup: pH 7.0
Where a SMILES comes first, the peptide text is derived from it. The star is where a group is joined. X1 = O=C(CCCCSc1ncnc2nc[nH]c12)*
measurement_name: logD

[
  {
    "molecule": "CCOC(=O)[C@H](CC(C)C)NC(=O)CNC(=O)CNC(=O)CCCCSc1ncnc2nc[nH]c12",
    "logD": 1.07
  },
  {
    "molecule": "CCOC(=O)C(NC(=O)CCCCSc1ncnc2nc[nH]c12)c1ccccc1 (configuration not stated)",
    "logD": 1.13
  },
  {
    "molecule": "CCOC(=O)C(NC(=O)CCCCSc1ncnc2[nH]cnc12)C(C)C (racemic)",
    "logD": 1.89
  },
  {
    "molecule": "CCOC(=O)CNC(=O)CNC(=O)CNC(=O)CNC(=O)CCCCSc1ncnc2nc[nH]c12 (X1-GGGG-OEt)",
    "logD": -0.23
  },
  {
    "molecule": "c1ncc2[nH]cnc2n1",
    "logD": -0.21
  }
]

1 = CCOC(=O)CNC(=O)CNC(=O)CCCCSc1ncnc2nc[nH]c12
2 = CCOC(=O)C[C@H](NC(=O)CCCCSc1ncnc2nc[nH]c12)C(=O)OCC
3 = CCOC(=O)CNC(=O)CCCCSc1ncnc2nc[nH]c12
Output the entries ranked by logD from maximum down to minimum. In plain terms: list the labels in the order you were asked to.
2, 3, 1
(2: 1.33, 3: 0.91, 1: 0.5)
